Some compounds, each annotated with its measured TGI.
- System: OVCAR-5 ovarian
- PROTOCOL_DETAILS: NCI tumour cell line growth inhibition, 48 h
MEASUREMENT_LABEL: TGI (µM)

# COMPOUND, OP, OBSERVED_MEASUREMENT
rows = [
    ("CCOC(=O)/C=C/C(C(=O)/C=C/c1ccc(OC2CCCCO2)c(OC)c1)=C(O)\\C=C\\c1ccc(OC2CCCCO2)c(OC)c1 (stereo not given)", "=", 74.5),
    ("Nc1nc(N)c2[nH]c(CNc3ccc(C(=O)O)cc3)nc2n1", ">", 100),
    ("CN(C)Cc1cc(C(=O)/C=C/c2ccc(Cl)cc2)cc(CN(C)C)c1O", "=", 54.5),
    ("Cc1ccc(C(SCC(N)C(=O)O)(c2ccccc2)c2ccc(C)cc2)cc1 (stereo not given)", "=", 24.4),
    ("CCOC(=O)C1=C(C)N(C)C23OC4(C(=O)OC)CC2c2ccccc2C1N3C4=O (stereo not given)", ">", 100),
    ("CCC[CH2][Sn]([CH2]CCC)([CH2]CCC)[O]C(=O)CC", "=", 0.387),
    ("CC(=O)OCCn1cnc2nc(Nc3ccccc3)nc(Cl)c21", ">", 100),
    ("CC1CC(N)=Nc2ccccc2N1 (stereo not given)", ">", 100),
    ("CC(=O)OC1Oc2ccccc2-c2oc(=O)c(-c3cc(=O)oc4cc(O)ccc34)cc21 (stereo not given)", "=", 57.2),
    ("CC(=O)n1nc(-c2ccccc2)n(/N=C/c2ccc([N+](=O)[O-])cc2)c1=O", ">", 100),
]

====

- Tested on: K-562 leukemia
- PROTOCOL_DETAILS: NCI tumour cell line growth inhibition, 48 h; in the data active means GI50 below about 0.43 µM; inactive means the rest
Classes used: active, inactive

# COMPOUND, TESTED_TARGET, DISCRETE_LABEL
records = [
    ("CCC[CH2][Sn]([CH2]CCC)([CH2]CCC)[O]C(=O)CC", "K-562 leukemia", "active"),
    ("CC(C)(C)C(=O)OCOP(=O)(OCOC(=O)C(C)(C)C)C1CCCN(O)C1=O (centres undefined)", "K-562 leukemia", "active"),
    ("Ic1ccc(Nc2nc3nonc3nc2Nc2ccc(I)cc2)cc1", "K-562 leukemia", "active"),
    ("CNCCNc1c2c(c(NCCNC)c3c(CN(C)C)c[nH]c13)C(=O)c1ccccc1C2=O", "K-562 leukemia", "inactive"),
    ("CC(C)c1ccc(Nc2ccc3c(OCCCN4CCN(C)CC4)cccc3n2)cc1", "K-562 leukemia", "inactive"),
    ("COc1ccc(N2C(=O)C(c3ccccc3)(c3ccccc3)C23C(=O)N(C)c2ccccc23)cc1 (centres undefined)", "K-562 leukemia", "inactive"),
    ("C=C(C=O)C1CCC2(C(=O)O)CCC3(C)C(CCC4C5(C)CCC(O)C(C)(C)C5CCC43C)C12 (centres undefined)", "K-562 leukemia", "inactive"),
    ("COc1ccc(N(C)c2ncnc3occ(C)c23)cc1", "K-562 leukemia", "active"),
    ("CCOC(=O)/C=C/C(C(=O)/C=C/c1ccc(OC2CCCCO2)c(OC)c1)=C(O)\\C=C\\c1ccc(OC2CCCCO2)c(OC)c1 (centres undefined)", "K-562 leukemia", "inactive"),
]

====

Some molecules, each annotated with its measured TGI.
- Tested on: SK-MEL-2 melanoma
- PROTOCOL_DETAILS: NCI tumour cell line growth inhibition, 48 h

# MOLECULE, TGI
records = [
    ("O=S(=O)(Nc1cc(F)cc(Cl)c1)c1ccc(-c2cnc(C3CC3)o2)cc1", "26.9 µM"),
    ("COc1ccc(OC)c(NC(=O)C(=O)NNC(=O)c2sc(NNC(C)=O)nc2C)c1", "> 100 µM"),
    ("COc1ccc(NC(=O)CCc2cc(-c3ccc(O)c(OC)c3)nc(NC#N)n2)cc1", "> 100 µM"),
    ("C=C(CCCCC)CN1CCCC1[C@@](C)(O)CC(=O)OCC (some centres undefined)", "> 100 µM"),
]

====

- System: UO-31 renal
- PROTOCOL_DETAILS: NCI tumour cell line growth inhibition, 48 h

# COMPOUND, TESTED_TARGET, OP, TGI (µM)
measured = [
    ("COc1ccc(N(C)c2ncnc3occ(C)c23)cc1", "UO-31 renal", ">", 100),
    ("CCN(CC)CCOc1ccc(/C=C(\\C#N)c2ccc(OCCN(CC)CC)cc2)cc1", "UO-31 renal", "=", 31.2),
    ("Cc1cc2nc3c(C#N)c(-c4ccccc4)cc(Nc4ccc(Cl)cc4)n3c2cc1C", "UO-31 renal", ">", 100),
    ("C[C@@H]1C[C@H]2[C@@H]3CCC4=CC(=O)C=C[C@]4(C)[C@@]3(Cl)[C@@H](Cl)C[C@]2(C)[C@@]1(O)C(=O)COP(=O)(O)O", "UO-31 renal", ">", 100),
    ("COc1ccc(C(=O)c2cc(OC)c(C)c(OC)c2)cc1OC(=O)CCl", "UO-31 renal", "=", 74),
    ("COC(=O)/C=C/c1cc(O)c2oc(-c3ccc(O)c(O)c3)c(C(=O)OC)c2c1", "UO-31 renal", "=", 10.6),
    ("COc1ccc(C2CC(c3cccc(Nc4ccncc4)c3)=NN2c2cc(Cl)cc(Cl)c2)cc1 (stereo not given)", "UO-31 renal", "=", 2.74),
    ("Cc1ccc(Cl)cc1Nc1nc(C(F)(F)F)ccc1C(=O)N1CCN(c2ccc(F)cc2)CC1", "UO-31 renal", "=", 22.5),
    ("CC(=O)Oc1cccc2c(/C=N/NC(N)=S)ncc(C)c12", "UO-31 renal", "=", 4.43),
    ("O=C(CC(=O)Nc1cccc(C(=O)O)c1)Nc1cccc(C(=O)O)c1", "UO-31 renal", ">", 100),
    ("CC(SC(C)C(=O)N/N=C/c1cccc(Cl)c1)C(=O)N/N=C\\c1cccc(Cl)c1 (stereo not given)", "UO-31 renal", "=", 94.4),
    ("Cc1ccc(C(SCC(N)C(=O)O)(c2ccccc2)c2ccc(C)cc2)cc1 (stereo not given)", "UO-31 renal", ">", 55),
    ("Cc1cc(C)c(S(=O)(=O)N2CCCN(S(=O)(=O)c3c(C)cc(C)cc3C)OCCCON(S(=O)(=O)c3c(C)cc(C)cc3C)CCCN(S(=O)(=O)c3c(C)cc(C)cc3C)OCCCO2)c(C)c1", "UO-31 renal", ">", 100),
    ("Oc1ccc2ccccc2c1/C=C/c1ccc2c(Br)cc(Br)c(O)c2n1", "UO-31 renal", "=", 17.1),
    ("O=[N+]([O-])c1nccn1CC(O)c1ccc(F)cc1 (stereo not given)", "UO-31 renal", ">", 100),
    ("O=C1OC(c2ccccc2)=N/C1=C/C=C/c1ccco1", "UO-31 renal", ">", 100),
    ("COc1ccc2c(c1)C(C)Cc1c(Cl)ncnc1N2C (stereo not given)", "UO-31 renal", "=", 42),
    ("COc1ccc(OC)c(NC(=O)C(=O)NNC(=O)c2sc(NNC(C)=O)nc2C)c1", "UO-31 renal", ">", 100),
    ("N#CSC#Cc1ccc(C#CSC#N)cc1", "UO-31 renal", "=", 33.6),
    ("Cc1cc(Br)cc(C)c1NC(=O)C(=O)C(C(=O)c1ccc2ccccc2c1)C1OC(=O)c2ccccc21 (stereo not given)", "UO-31 renal", "=", 30.3),
]

====

Some molecules, each annotated with its measured TGI.
- System: SK-MEL-28 melanoma
- PROTOCOL_DETAILS: NCI tumour cell line growth inhibition, 48 h

# MOLECULE, TGI
data = [
    ("O=S(=O)(Nc1cc(F)cc(Cl)c1)c1ccc(-c2cnc(C3CC3)o2)cc1", "23.7 µM"),
    ("COCCOc1cc(F)c2c(Nc3ccc(NC(=O)Cn4cc(C(C)C)nn4)cc3)ncnc2c1", "> 100 µM"),
    ("CCOC(=O)C1=CC(C)(C(=O)OCC)Nc2c(nc(OC)n(C)c2=O)N1 (stereo unspecified)", "> 10 µM"),
    ("COc1cc(C[S+]2CCCC2)c(SC)cc1C[S+]1CCCC1", "> 100 µM"),
    ("CCOC(=O)C1(Cc2ccc3c(c2)CCC3)Cc2cc3c(cc2C1)CCC3", "> 100 µM"),
    ("CS(=O)(=O)Nc1ccc(N2Cc3cnc4ccc5[nH]ccc2c5c34)cc1", "41.6 µM"),
    ("NNC(N)Nc1ccccc1 (stereo unspecified)", "> 100 µM"),
    ("COC(=O)c1cc2c(cc1O)[C@@H](NC(C)=O)CCc1cc(OC)c(OC)c(OC)c1-2", "> 100 µM"),
    ("Clc1coc2nc3ccccc3c(Nc3ccc4c(c3)OCO4)c12", "> 71.4 µM"),
    ("COc1cc(Nc2cnc3cc(F)c(F)cc3n2)cc(OC)c1OC", "> 100 µM"),
    ("CC1CC=CC(O)C1 (stereo unspecified)", "> 100 µM"),
]
